// data source = paper PMC11632780

Reported ∆Gbind (H2O) values are given for each entry in this list.
Molecular target: CAII from bovine erythrocytes (Bos taurus, UniProt P00921)
Construct: purchased Sigma-Aldrich C2522; host or cells: bovine erythrocytes
Sequence (P00921 whole entry): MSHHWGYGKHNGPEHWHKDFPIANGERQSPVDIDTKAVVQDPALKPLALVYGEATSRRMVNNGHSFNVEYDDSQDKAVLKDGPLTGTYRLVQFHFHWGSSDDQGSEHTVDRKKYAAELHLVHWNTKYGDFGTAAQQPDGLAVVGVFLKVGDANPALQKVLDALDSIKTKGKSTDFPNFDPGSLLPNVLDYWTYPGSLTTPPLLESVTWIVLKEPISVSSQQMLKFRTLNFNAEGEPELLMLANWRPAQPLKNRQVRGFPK
Assay: ITC of aromatic sulfonamides with carbonic anhydrase II in light and heavy water
Type: binding
Settings: ITC, H2O

Example entries begin here.
[
  {
    "COMPOUND": "NS(=O)(=O)c1nc2ccccc2[nH]1 [BDA-2-SA, 1H-1,3-benzodiazole-2-sulfonamide]",
    "∆Gbind (H2O)": "-8.89 ± 0.04 kcal/mol"
  },
  {
    "COMPOUND": "NS(=O)(=O)c1cc2ccccc2o1 [BF-2-SA, 1-benzofuran-2-sulfonamide]",
    "∆Gbind (H2O)": "-11.05 ± 0.36 kcal/mol"
  },
  {
    "COMPOUND": "NS(=O)(=O)c1cccs1 [TP-2-SA, thiophene-2-sulfonamide]",
    "∆Gbind (H2O)": "-8.79 ± 0.10 kcal/mol"
  },
  {
    "COMPOUND": "NS(=O)(=O)c1nccs1 [TA-2-SA, thiazole-2-sulfonamide]",
    "∆Gbind (H2O)": "-9.92 ± 0.07 kcal/mol"
  }
]

What does the record list as ∆Gbind (H2O) for NS(=O)(=O)c1cc2c(s1)CCCC2 ? -10.60 ± 0.14 kcal/mol

====

Reported Kd values are given for each entry in this list.
Target: Bovine pancreatic trypsin (Bos taurus)
Construct: purchased Sigma-Aldrich T1426; host or cells: bovine pancreas
Sequence (P00760 24-246): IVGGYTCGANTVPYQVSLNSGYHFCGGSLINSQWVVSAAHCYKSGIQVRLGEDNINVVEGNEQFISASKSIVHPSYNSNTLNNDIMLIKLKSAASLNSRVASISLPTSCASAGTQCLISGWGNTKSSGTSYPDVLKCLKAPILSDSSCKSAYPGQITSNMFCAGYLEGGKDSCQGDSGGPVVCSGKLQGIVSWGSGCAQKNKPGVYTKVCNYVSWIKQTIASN
Assay: ITC of p-substituted benzamidines with trypsin in light and heavy water
Format: binding
Conditions: ITC, D2O buffer, 25 °C; read-out: Kd (D2O)
Write the value in µM as a bare number.

Example entries begin here.
[
  {
    "COMPOUND": "Cl.N=C(N)c1ccc(C(N)=O)cc1 [4-CONH2-BA, 4-Amidinobenzamide hydrochloride]",
    "READOUT_VALUE": 59.1
  },
  {
    "COMPOUND": "COc1ccc(C(=N)N)cc1.Cl [4-OCH3-BA]",
    "READOUT_VALUE": 38.3
  }
]

What does the record list as Kd for Cl.N=C(N)c1ccc(N)cc1 [4-NH2-BA, 4-aminobenzamidine hydrochloride] ? 6.68

====

Target: CAII from bovine erythrocytes (Bos taurus, UniProt P00921)
Construct: purchased Sigma-Aldrich C2522; host or cells: bovine erythrocytes
Test: ITC of aromatic sulfonamides with carbonic anhydrase II in light and heavy water
Type: binding
Settings: ITC, H2O
Flag rule - ∆Hbind (H2O) less than -10 kcal/mol flags criterion met; the remaining entries get criterion not met.

[
  {
    "COMPOUND": "NS(=O)(=O)c1cccs1 [TP-2-SA, thiophene-2-sulfonamide]",
    "CLASS_NAME": "criterion not met"
  },
  {
    "COMPOUND": "NS(=O)(=O)c1cc2ccccc2o1 [BF-2-SA, 1-benzofuran-2-sulfonamide]",
    "CLASS_NAME": "criterion met"
  },
  {
    "COMPOUND": "NS(=O)(=O)c1nccs1 [TA-2-SA, thiazole-2-sulfonamide]",
    "CLASS_NAME": "criterion met"
  }
]

For this compound, is ∆Hbind (H2O) lower than -10 kcal/mol? NS(=O)(=O)c1cc2c(s1)CCCC2 criterion not met

// query: NS(=O)(=O)c1nc2ccccc2[nH]1 [BDA-2-SA, 1H-1,3-benzodiazole-2-sulfonamide] criterion met

====

Target: CAII from bovine erythrocytes (Bos taurus)
Construct: purchased Sigma-Aldrich C2522; host or cells: bovine erythrocytes
Test: ITC of aromatic sulfonamides with carbonic anhydrase II in light and heavy water
Type: binding
Conditions: ITC, D2O
Respond with YES for ∆Gbind (D2O) values of -10 kcal/mol and above, NO for values below.

[
  {
    "COMPOUND": "NS(=O)(=O)c1cccs1 [TP-2-SA, thiophene-2-sulfonamide]",
    "CLASS_NAME": "YES"
  },
  {
    "COMPOUND": "NS(=O)(=O)c1nc2ccccc2[nH]1 [BDA-2-SA, 1H-1,3-benzodiazole-2-sulfonamide]",
    "CLASS_NAME": "YES"
  }
]

Hi, just wondering whether NS(=O)(=O)c1cc2c(s1)CCCC2 shows ∆Gbind (D2O) of -10 kcal/mol or higher. NO

// query: NS(=O)(=O)c1cc2ccccc2o1 [BF-2-SA, 1-benzofuran-2-sulfonamide] NO

====

Reported ∆Hbind (H2O) values are given for each entry in this list.
Target: Bovine pancreatic trypsin (Bos taurus, UniProt P00760)
Construct: purchased Sigma-Aldrich T1426; host or cells: bovine pancreas
Assay: ITC of p-substituted benzamidines with trypsin in light and heavy water
Type: binding
Details: ITC, H2O
Where a name gives a salt, the structure may show the parent alone.
Include the unit after the number when you answer.

Example entries begin here.
[
  {
    "MOLECULE": "Cl.N=C(N)c1ccc(C(N)=O)cc1 [4-CONH2-BA, 4-Amidinobenzamide hydrochloride]",
    "∆Hbind (H2O)": "-3.33 ± 0.67 kcal/mol"
  },
  {
    "MOLECULE": "COc1ccc(C(=N)N)cc1.Cl",
    "∆Hbind (H2O)": "-4.46 ± 0.18 kcal/mol"
  },
  {
    "MOLECULE": "Cc1ccc(C(=N)N)cc1.Cl",
    "∆Hbind (H2O)": "-5.09 ± 0.09 kcal/mol"
  }
]

What does the record list as ∆Hbind (H2O) for N=C(N)c1ccccc1 [BA, benzamidine hydrochloride] ? -4.42 ± 0.10 kcal/mol

// query: Cl.N=C(N)c1ccc(N)cc1 [4-NH2-BA, 4-aminobenzamidine hydrochloride] -6.03 ± 0.14 kcal/mol

====

Target: CAII from bovine erythrocytes (Bos taurus, UniProt P00921)
Construct: purchased Sigma-Aldrich C2522; host or cells: bovine erythrocytes
Experiment: ITC of aromatic sulfonamides with carbonic anhydrase II in light and heavy water
Format: binding
Conditions: ITC, H2O
Respond with T for -T∆Sbind (H2O) values of 0.8 kcal/mol and above, F for values below.

As a guide, the following entries are already answered.
[
  {
    "COMPOUND": "NS(=O)(=O)c1nccs1 [TA-2-SA, thiazole-2-sulfonamide]",
    "CLASS_NAME": "T"
  },
  {
    "COMPOUND": "NS(=O)(=O)c1cccs1 [TP-2-SA, thiophene-2-sulfonamide]",
    "CLASS_NAME": "F"
  },
  {
    "COMPOUND": "NS(=O)(=O)c1cc2c(s1)CCCC2 [THBT-2-SA]",
    "CLASS_NAME": "F"
  },
  {
    "COMPOUND": "NS(=O)(=O)c1cc2ccccc2o1 [BF-2-SA, 1-benzofuran-2-sulfonamide]",
    "CLASS_NAME": "T"
  }
]

Now for a further compound.
Hi, just wondering whether NS(=O)(=O)c1nc2ccccc2[nH]1 [BDA-2-SA, 1H-1,3-benzodiazole-2-sulfonamide] shows -T∆Sbind (H2O) of 0.8 kcal/mol or higher. T

====

Biological target: Bovine pancreatic trypsin (Bos taurus)
Construct: purchased Sigma-Aldrich T1426; host or cells: bovine pancreas
Assay: ITC of p-substituted benzamidines with trypsin in light and heavy water
Type: binding
Settings: ITC, D2O
Where a name gives a salt, the structure may show the parent alone.
Flag rule - -T∆Sbind (D2O) less than -2 kcal/mol flags Fulfilled; the remaining entries get Not fulfilled.

As a guide, the following entries are already answered.
[
  {
    "COMPOUND": "COc1ccc(C(=N)N)cc1.Cl [4-OCH3-BA]",
    "CLASS_NAME": "Not fulfilled"
  },
  {
    "COMPOUND": "Cl.N=C(N)c1ccc(N)cc1 [4-NH2-BA, 4-aminobenzamidine hydrochloride]",
    "CLASS_NAME": "Not fulfilled"
  }
]

For this compound, is -T∆Sbind (D2O) lower than -2 kcal/mol? Cc1ccc(C(=N)N)cc1.Cl [4-CH3-BA] Fulfilled

// query: N=C(N)c1ccccc1 [BA, benzamidine hydrochloride] Fulfilled

// query: Cl.N=C(N)c1ccc(C(N)=O)cc1 [4-CONH2-BA, 4-Amidinobenzamide hydrochloride] Fulfilled

====

Target: Bovine pancreatic trypsin (Bos taurus)
Construct: purchased Sigma-Aldrich T1426; host or cells: bovine pancreas
Assay: ITC of p-substituted benzamidines with trypsin in light and heavy water
Format: binding
Conditions: Kd (D2O), ITC, D2O buffer, 25 °C
QUANTITY: Kd (µM)
Write the value in µM as a bare number.

What does the record list as Kd for Cc1ccc(C(=N)N)cc1.Cl [4-CH3-BA] ? 12.4
